assay comment: Short term HFD mouse model: plasma and liver exposure
Type: in vivo, mice (C57BL/6J)
experimental conditions: HFD mice, three oral doses of 20 mg/kg, 4 h after last dose
value kind: plasma exposure 4 h

Below are worked cases with known answers.
N#Cc1ccccc1-c1c(-c2cccc(-c3ccc(C(=O)O)cc3Cl)c2)n(S(=O)(=O)c2ccc(C(F)F)cc2)c2cnccc12: D (D: <100 nM)
O=C(O)c1ccc(-c2cccc(-c3c(-c4ncccc4C(F)(F)F)c4cc(F)ccc4n3S(=O)(=O)c3ccc(C(F)F)cc3)c2)c(Cl)c1: C (C: 100 nM to <300 nM)
N#Cc1ccccc1-c1c(-c2cccc(-c3ccc(C(=O)O)cc3Cl)c2)n(S(=O)(=O)c2ccc(C(F)F)cc2)c2ccc(F)cc12: C (C: 100 nM to <300 nM)
Cc1ccc(S(=O)(=O)n2c(-c3cccc(-c4ccc(C(=O)O)cc4)c3)c(-c3ccsc3C#N)c3cc(F)ccc32)cc1C: C (C: 100 nM to <300 nM)
COc1c(C(=O)O)ccc(-c2cccc(-c3c(-c4ccccc4C#N)c4cc(F)ccc4n3S(=O)(=O)c3ccc(C(F)F)cc3)c2)c1Cl: D (D: <100 nM)

For the next question, use this compound.
Exercise: Let me know recorded plasma exposure 4 h for Cc1ccc(S(=O)(=O)n2c(-c3cccc(-c4ccc(C(=O)O)cc4)c3)c(-c3ccsc3C#N)c3cc(F)ccc32)cc1 , thanks.
Key: D (D: <100 nM)

---

target under test: full length (FL) LXRα (Homo sapiens, UniProt Q13133)
Construct: the full length (FL) proteins of LXRα (amino acids 1-447); NP005684; expressed in transfected cells; host or cells: HEK293
Sequence (Q13133 1-447): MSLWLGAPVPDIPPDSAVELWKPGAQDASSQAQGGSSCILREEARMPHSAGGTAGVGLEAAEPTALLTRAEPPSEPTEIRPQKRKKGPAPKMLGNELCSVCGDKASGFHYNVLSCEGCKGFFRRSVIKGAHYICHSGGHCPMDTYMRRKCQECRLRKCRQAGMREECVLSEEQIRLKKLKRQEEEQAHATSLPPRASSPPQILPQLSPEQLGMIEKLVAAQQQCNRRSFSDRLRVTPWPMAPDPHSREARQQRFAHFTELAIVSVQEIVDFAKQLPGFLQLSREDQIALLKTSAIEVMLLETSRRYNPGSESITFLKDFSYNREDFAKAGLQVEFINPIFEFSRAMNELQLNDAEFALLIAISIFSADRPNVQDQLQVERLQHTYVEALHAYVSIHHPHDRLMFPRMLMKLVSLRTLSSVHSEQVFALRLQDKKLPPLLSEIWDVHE
assay comment: LXR Gal4 reporter transient transfection assay (FL-M2H Gal4α)
Type: cell-based
experimental conditions: HEK293 cells, full length LXRα; read-out: FL-M2H Gal4α (EC50 range)
Description: The tested compounds were usually dissolved, tested and stored as 20 mM stock solutions in DMSO. […] LXRα and LXRβ activity status was determined via detection of interaction with coactivator and corepressor proteins in mammalian two-hybrid experiments (M2H). […] Interaction was monitored via activation of a coexpressed Firefly Luciferase Reporter gene under control of a promoter containing repetitive GAL4 response elements (vector pFRLuc; Stratagene). […]
pEC50: −log10 of the molar value.
value kind: pEC50

Exercise: Let me know recorded pEC50 for N#CC1=C(c2c(-c3cccc(-c4ccc(C(=O)O)cc4Cl)c3)n(S(=O)(=O)c3ccc(C(F)F)cc3)c3ccc(F)cc23)CCCC1 , thanks.
Key: 6.00 to 7.00

Exercise: Let me know recorded pEC50 for N#Cc1cccc(C#N)c1-c1c(-c2cccc(-c3ccc(C(=O)O)cc3Cl)c2)n(S(=O)(=O)c2ccc(Cl)cc2)c2ccc(F)cc12 , thanks.
Key: > 7.00

Exercise: Let me know recorded pEC50 for N#Cc1sccc1-c1c(-c2cccc(N3CC(C(=O)O)C3)c2)n(S(=O)(=O)c2ccc3c(c2)CCC3)c2ccc(F)cc12 , thanks.
Key: > 7.00

Exercise: Let me know recorded pEC50 for COc1sccc1-c1c(-c2cccc(N3CC(C(=O)O)C3)c2)n(S(=O)(=O)c2ccc(C)cc2)c2ccc(F)cc12 , thanks.
Key: 6.00 to 7.00

Exercise: Let me know recorded pEC50 for N#Cc1sccc1-c1c(-c2cccc(N3CC(C(=O)O)C3)c2)n(S(=O)(=O)c2ccc(Cl)cc2)c2ccc(F)cc12 , thanks.
Key: 6.00 to 7.00

Exercise: Let me know recorded pEC50 for Cc1ccc(S(=O)(=O)n2c(-c3cccc(N4CC(C(=O)O)C4)c3)c(-c3ccsc3C#N)c3cc(C)ccc32)cc1 , thanks.
Key: > 7.00

Exercise: Let me know recorded pEC50 for N#Cc1cccc(C#N)c1-c1c(-c2cccc(-c3ccc(C(=O)O)cc3Cl)c2)n(S(=O)(=O)C2CCC(F)(F)CC2)c2ccc(F)cc12 , thanks.
Key: > 7.00

Exercise: Let me know recorded pEC50 for COc1cccc(-c2c(-c3cccc(-c4ccc(C(=O)O)cc4Cl)c3)n(S(=O)(=O)c3ccc(C)cc3)c3ccc(F)cc23)c1C#N , thanks.
Key: > 7.00

Exercise: Let me know recorded pEC50 for N#Cc1sccc1-c1c(-c2cccc(N3CC(C(=O)O)C3)c2)n(S(=O)(=O)c2ccc(C(F)(F)F)cc2)c2ccc(F)cc12 , thanks.
Key: 6.00 to 7.00

Exercise: Let me know recorded pEC50 for O=C(O)c1ccc(-c2cccc(-c3c(-c4cccc5oncc45)c4cc(F)ccc4n3S(=O)(=O)c3ccc(C(F)F)cc3)c2)c(Cl)c1 , thanks.
Key: 6.00 to 7.00

Exercise: Let me know recorded pEC50 for COc1cccnc1-c1c(-c2cccc(-c3ccc(C(=O)O)cc3Cl)c2)n(S(=O)(=O)c2ccc(C(F)F)cc2)c2ccc(F)cc12 , thanks.
Key: > 7.00

Exercise: Let me know recorded pEC50 for COc1cc(-c2c(-c3cccc(-c4ccc(C(=O)O)cc4Cl)c3)n(S(=O)(=O)c3ccc(C(F)F)cc3)c3ccc(F)cc23)c2c(C#N)cnn2c1 , thanks.
Key: > 7.00

Exercise: Let me know recorded pEC50 for Cc1ccc(S(=O)(=O)n2c(-c3cccc(N4CCC(C(=O)O)CC4)c3)c(-c3ccsc3C#N)c3cc(F)ccc32)cc1 , thanks.
Key: > 7.00

Exercise: Let me know recorded pEC50 for Cc1ccc(S(=O)(=O)n2c(-c3cccc(-c4ccc(C(=O)O)cc4Cl)c3)c(-c3c(C)cccc3C#N)c3cc(F)ccc32)cc1 , thanks.
Key: > 7.00

---

Kindly state EC50 for each of the entries shown.
target under test: full length (FL) LXRβ (Homo sapiens, UniProt P55055, DUP175-175)
Construct: the full length (FL) proteins of LXRα (amino acids 1-447); NP005684; NP009052; expressed in transfected cells; host or cells: HEK293
Sequence (P55055 with tags, fused parts or gaps DUP175-175): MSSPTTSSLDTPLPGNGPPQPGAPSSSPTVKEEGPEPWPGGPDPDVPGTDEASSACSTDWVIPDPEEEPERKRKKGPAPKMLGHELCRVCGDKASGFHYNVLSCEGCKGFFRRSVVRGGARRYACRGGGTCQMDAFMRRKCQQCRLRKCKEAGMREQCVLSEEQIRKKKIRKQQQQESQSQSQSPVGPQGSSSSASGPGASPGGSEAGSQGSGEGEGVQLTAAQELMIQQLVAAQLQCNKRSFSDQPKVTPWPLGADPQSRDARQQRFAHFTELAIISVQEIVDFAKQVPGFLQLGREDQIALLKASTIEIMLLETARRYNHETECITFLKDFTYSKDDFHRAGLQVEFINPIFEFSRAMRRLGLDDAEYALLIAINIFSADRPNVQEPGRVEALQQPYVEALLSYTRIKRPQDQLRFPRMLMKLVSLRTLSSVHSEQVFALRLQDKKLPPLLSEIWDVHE
assay comment: LXR Gal4 reporter transient transfection assay (FL-M2H Gal4β)
Assay type: cell-based
experimental conditions: HEK293 cells, full length LXRβ; read-out: FL-M2H Gal4β (EC50 range)

Exercise: Let me know recorded EC50 for Cc1ccc(S(=O)(=O)n2c(-c3cccc(N4CC(C(=O)O)C4)c3)c(-c3ccsc3C(=O)N(C)C)c3cc(F)ccc32)cc1 , thanks.
Key: 1000 to 10000 nM

Exercise: Let me know recorded EC50 for Cc1ccc(S(=O)(=O)n2c(-c3cccc(N4CC(C(=O)O)C4)c3)c(-c3ccsc3C(F)F)c3cc(F)ccc32)cc1 , thanks.
Key: < 100 nM

Exercise: Let me know recorded EC50 for Cc1ccc(S(=O)(=O)n2c(-c3cccc(-c4ccc(C(=O)O)cc4Cl)c3)c(-c3ccc(C)cc3C#N)c3cc(F)ccc32)cc1 , thanks.
Key: < 100 nM

Exercise: Let me know recorded EC50 for O=C(NCCS(=O)(=O)O)C1CC1c1cccc(-c2c(-c3c(Cl)cccc3Cl)c3cc(F)ccc3n2S(=O)(=O)c2ccc(C(F)F)cc2)c1 (stereo not drawn) , thanks.
Key: < 100 nM

Exercise: Let me know recorded EC50 for Cc1ccc(S(=O)(=O)n2c(-c3cccc(C4CC4C(=O)O)c3)c(-c3ccsc3C#N)c3cccnc32)cc1 (stereo not drawn) , thanks.
Key: 100 to 1000 nM

Exercise: Let me know recorded EC50 for N#CC1=C(c2c(-c3cccc(-c4ccc(C(=O)O)cc4Cl)c3)n(S(=O)(=O)c3ccc(C(F)F)cc3)c3ccc(F)cc23)CCCC1 , thanks.
Key: 100 to 1000 nM

Exercise: Let me know recorded EC50 for N#Cc1cccc(C#N)c1-c1c(-c2cccc(-c3ccc(C(=O)NCC(=O)O)cc3Cl)c2)n(S(=O)(=O)c2ccc(C(F)F)cc2)c2ccc(F)cc12 , thanks.
Key: < 100 nM

Exercise: Let me know recorded EC50 for Cc1ccc(S(=O)(=O)n2c(-c3cc(N4CC(C(=O)O)C4)ccc3F)c(-c3ccsc3C#N)c3cc(F)ccc32)cc1 , thanks.
Key: < 100 nM

Exercise: Let me know recorded EC50 for Cc1ccc(S(=O)(=O)n2c(-c3cccc(N4CC(C(=O)O)C4)c3)c(-c3ccsc3C#N)c3sccc32)cc1 , thanks.
Key: < 100 nM

Exercise: Let me know recorded EC50 for N#Cc1ccc(S(=O)(=O)n2c(-c3cccc(-c4ccc(C(=O)O)cc4Cl)c3)c(-c3ccsc3C#N)c3cc(F)ccc32)cc1 , thanks.
Key: < 100 nM

Exercise: Let me know recorded EC50 for Cc1ccc(S(=O)(=O)n2c(-c3cccc(C#CC(C)(C)C(=O)O)c3)c(-c3ccsc3C#N)c3cc(F)ccc32)cc1 , thanks.
Key: < 100 nM

Exercise: Let me know recorded EC50 for N#Cc1sccc1-c1c(-c2cccc(N3CC(C(=O)O)C3)c2)n(S(=O)(=O)c2ccc3c(c2)CCC3)c2ccc(F)cc12 , thanks.
Key: < 100 nM

Exercise: Let me know recorded EC50 for O=C(O)c1ccc(-c2cccc(-c3c(-c4ccsc4C(F)(F)F)c4cc(F)ccc4n3S(=O)(=O)c3ccc(C(F)F)cc3)c2)c(Cl)c1 , thanks.
Key: < 100 nM

Exercise: Let me know recorded EC50 for Cc1ccc(S(=O)(=O)n2c(-c3cccc(N4CC(C(=O)O)C4)c3)c(-c3ccsc3C#N)c3cc(F)ccc32)c(F)c1 , thanks.
Key: 100 to 1000 nM

Exercise: Let me know recorded EC50 for Cc1ccc(S(=O)(=O)n2c(-c3cccc(C4CC(C(=O)O)C4)c3)c(-c3ccsc3C#N)c3cc(F)ccc32)cc1 (stereo not drawn) , thanks.
Key: < 100 nM

Sourced from patent US11618747B2
